read-out: Interferon-gamma inducible Protein 10 (IP10), CXCL10 (gene 3627); experiment: BSK_KF3CT_IP10: BioMAP Diversity Plus: KF3CT Assay for Interferon-gamma inducible Protein 10 (IP10) Biomarker Activity (AID 2283068); conditions: primary human keratinocytes with fibroblasts; actives raise or lower the signal
The source made the active and inactive calls. Rule for the calls: active = hit-call score of the fitted dose curve at least 0.9, where 1 is the maximum; inactive = score below 0.9.
result_type: AC50

Solved entries (count: 10):
molecule	AC50
C=C(C)C(=O)[O][Sn]([CH2]CCC)([CH2]CCC)[CH2]CCC	0.181 µM (active)
COC[C@H](C)N(C(=O)CCl)c1c(C)csc1C	inactive
COC(=O)c1sccc1S(=O)(=O)NC(=O)Nc1nc(C)nc(OC)n1	inactive
CCC(=O)C(CC(C)N(C)C)(c1ccccc1)c1ccccc1 (configuration not stated)	inactive
COP(=S)(OC)Oc1c(Cl)cc(C)cc1Cl	inactive
O=C(O)CCC(F)(C(F)(F)F)C(F)(F)F	inactive
CCOP(=S)(OCC)Oc1ccc(S(C)=O)cc1 (configuration not stated)	inactive
CC(C)CCCCCCOC(=O)c1ccccc1C(=O)OCCCCCCC(C)C	inactive
C(=NC1CCCCC1)=NC1CCCCC1	14.9 µM (active)
Oc1ccc(-c2ccccc2)cc1	inactive

Q: Return reported AC50; argument: C[C@@H]1C[C@@H]([C@H](O)CC2CC(=O)NC(=O)C2)C(=O)[C@@H](C)C1
A: 12.9 µM (active)

Q: Return reported AC50; argument: COC(=O)Cc1ccccc1
A: inactive
